// data source = paper PMC8809517

- tested-system: T1, GFP-9S library array, motif 4 ND N98K;D124Q (synthetic construct, N98K;D124Q)
- T1 chain: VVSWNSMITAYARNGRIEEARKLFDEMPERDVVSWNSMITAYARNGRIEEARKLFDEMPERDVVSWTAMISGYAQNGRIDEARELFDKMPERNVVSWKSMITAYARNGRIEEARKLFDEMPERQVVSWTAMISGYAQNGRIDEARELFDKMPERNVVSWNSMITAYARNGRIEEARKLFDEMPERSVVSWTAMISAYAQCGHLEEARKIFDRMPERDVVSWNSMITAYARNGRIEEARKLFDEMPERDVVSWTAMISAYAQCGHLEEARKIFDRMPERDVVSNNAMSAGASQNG
- method-notes: high-throughput RNA pulldown from lysate on Ni-NTA beads; HRP: 50 mM Tris pH 8, 150 mM NaCl, 1 mM beta-mercaptoethanol, 50 ug/ml BSA, 3 ug/ml yeast RNA, 0.5% heparin; ITC and FP: Tris pH 8, 200 mM KCl, 5% glycerol; MST: 50 mM Tris pH 8, 200 mM NaCl, 1 mM DTT, BSA, heparin, 0.05% Tween 20
- condition-info: tags: N-terminal His-eGFP; label: 5' Cy5
endpoint: pKd
Hey, just a heads up that pKd is the negative log base 10 of the concentration in molar.

- binder: "AUUAGACGUGA (ssRNA) [Cy5-rpoA-G]"
  pKd: 7.09

Ask | Reported pKd for AUUACACGUGA (ssRNA) [Cy5-rpoA] : what is it?
Reply | 7.15
